SYSTEM_NAME: HCV polymerase (Hepatitis C virus genotype 1b)
Construct: (His)6 (C)
PROTOCOL_TEXT: biochemical
EXPERIMENTAL_CONTEXT: polymerase assay of Biological Example 1; read-out: NS5B polymerase IC50
pIC50: −log10 of the molar value.
PROPERTY_LABEL: pIC50

Here's what some known entries look like.
{"COMPOUND": "CNC(=O)c1c(-c2ccc(C)cc2)oc2nc(N(CCCC(C)(OC)C(=O)O)S(C)(=O)=O)c(C3CC3)cc12 (stereo not shown) [Example 29.9992]", "pIC50": 8.40}
{"COMPOUND": "CNC(=O)c1c(-c2ccc(F)cc2)oc2nc(N(CCC(O)CO)S(C)(=O)=O)c(I)cc12 (stereo not shown) [Example 18.94]", "pIC50": 6.61}

a = C=CCCCN(c1nc2oc(-c3ccc(C)cc3)c(C(=O)NC)c2cc1C1CC1)S(C)(=O)=O [Example 29.99]
b = CCc1cc2c(C(=O)NC)c(-c3ccc(F)cc3)oc2nc1N(CCCN(C)C(C)=O)S(C)(=O)=O [Example 23.997]
Pick one: a or b . Which one has the lower reported pIC50? Write down the label of the entry you select.
b
